Entry source: patent US20230233569A1

# studySystem: KRAS G12S (Homo sapiens, UniProt P01116+P62937, G12S)
# Sequence (P01116 1-169 isoform P01116-2 G12S limits assumed, one chain of several): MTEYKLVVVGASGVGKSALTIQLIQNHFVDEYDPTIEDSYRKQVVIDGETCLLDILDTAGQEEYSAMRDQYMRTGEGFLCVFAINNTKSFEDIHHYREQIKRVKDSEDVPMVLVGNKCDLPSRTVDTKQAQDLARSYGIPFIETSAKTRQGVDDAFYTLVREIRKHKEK
# measurementProtocol: Ras-Raf disruption / FRET / MOA assay (BRAF RBD)
# Assay type: biochemical
# experimentalSetup: Ras-Raf disruption, with Cyclophilin A; read-out: KRAS G12S FRET data IC50
pIC50: −log10 of the molar value.
readoutKind: pIC50

Response field pIC50 (KRAS G12S (Homo sapiens, UniProt P01116+P62937, G12S)) for item CCn1c(-c2cccnc2[C@H](C)OC)c2c3cc(ccc31)-c1csc(n1)C[C@H](NC(=O)[C@H](C(C)C)N(C)C(=O)N1CC[C@H]1CN(C)C(=O)[C@@H]1CN1)C(=O)N1CCC[C@H](N1)C(=O)OCC(C)(C)C2 [Example 235] : 5.00 to 6.00

# lookup: CCn1c(-c2cccnc2[C@H](C)OC)c2c3cc(ccc31)-c1csc(n1)C[C@H](NC(=O)[C@H](C(C)C)N(C)C(=O)N1CC[C@H](N(C)C(=O)[C@H]3CN3)C1)C(=O)N1CCC[C@H](N1)C(=O)OCC(C)(C)C2 (atropisomer, axis not shown) [Example 228] on KRAS G12S (Homo sapiens, UniProt P01116+P62937, G12S), pIC50 = 6.00 to 7.00

The compound CCn1c(-c2cccnc2[C@H](C)OC)c2c3cc(ccc31)-c1csc(n1)C[C@H](NC(=O)[C@H](C(C)C)N(C)C(=O)N1CCN(C(=O)[C@H]3CN3)C[C@H]1C)C(=O)N1CCC[C@H](N1)C(=O)OCC(C)(C)C2 [Example 301] on KRAS G12S (Homo sapiens, UniProt P01116+P62937, G12S): pIC50 was 7.00 to 8.00

pIC50 of CCn1c(-c2cccnc2[C@H](C)OC)c2c3cc(ccc31)-c1cc(O)cc(c1)C[C@H](NC(=O)[C@H](C(C)C)N(C)C(=O)N1CCN(C(=O)[C@H]3CN3)CC1)C(=O)N1CCC[C@H](N1)C(=O)OCC(C)(C)C2 [Example 177] , assay on KRAS G12S (Homo sapiens, UniProt P01116+P62937, G12S), is 7.00 to 8.00

###

# studySystem: NRAS Q61K (Homo sapiens, UniProt P01111+P62937, Q61K)
# Sequence (P01111 whole entry Q61K, one chain of several): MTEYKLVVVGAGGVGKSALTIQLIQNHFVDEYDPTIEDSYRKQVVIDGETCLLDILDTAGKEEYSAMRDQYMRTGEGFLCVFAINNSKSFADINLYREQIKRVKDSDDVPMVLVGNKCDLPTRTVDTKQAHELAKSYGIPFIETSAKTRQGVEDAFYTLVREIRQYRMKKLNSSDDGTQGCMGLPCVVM
# measurementProtocol: Disruption of BRAF RBD interaction with Ras (FRET / MOA assay, with Cyclophilin A)
# Type: biochemical
# experimentalSetup: NRAS Q61K; read-out: NRAS Q61K FRET data IC50
What IC50 was measured for each of the following?

// IC50 lookup, compound = CCn1c(-c2cccnc2[C@H](C)OC)c2c3cc(ccc31)-c1csc(n1)C[C@H](NC(=O)[C@H](C(C)C)N(C)C(=O)N1CC3(CC(N(C)C)C3)C1)C(=O)N1CCC[C@H](N1)C(=O)OCC(C)(C)C2 (atropisomer, axis not shown) , result: 10 to 100 nM

response.value for CCn1c(-c2cccnc2[C@H](C)OC)c2c3cc(ccc31)-c1csc(n1)C[C@H](NC(=O)[C@H](C(C)C)N(C)C(=O)[C@@H]1CCN(C)[C@@H]1c1ccccc1)C(=O)N1CCC[C@H](N1)C(=O)OCC(C)(C)C2 (field: IC50) = 1000 to 10000 nM

Entry C=CC(=O)N1CC2(CCN2C(=O)N(C)[C@H](C(=O)N[C@H]2Cc3nc(n(C)n3)-c3ccc4c(c3)c(c(-c3cccnc3[C@H](C)OC)n4CC)CC(C)(C)COC(=O)C3CCCN(N3)C2=O)C(C)C)C1 (stereo partly shown) , IC50 reported as 10 to 100 nM

IC50 in this record for CCn1c(-c2cccnc2[C@H](C)OC)c2c3cc(ccc31)-c1csc(n1)C[C@H](NC(=O)[C@H](C(C)C)N(C)C(=O)N1CCC13CCOCC3)C(=O)N1CCC[C@H](N1)C(=O)OCC(C)(C)C2 (atropisomer, axis not shown) : 10 to 100 nM

###

Please respond with reported IC50 for every item in the list.
# studySystem: KRAS G13D (Homo sapiens, UniProt P01116+P62937, G13D)
# Sequence (P01116 1-169 isoform P01116-2 G13D limits assumed): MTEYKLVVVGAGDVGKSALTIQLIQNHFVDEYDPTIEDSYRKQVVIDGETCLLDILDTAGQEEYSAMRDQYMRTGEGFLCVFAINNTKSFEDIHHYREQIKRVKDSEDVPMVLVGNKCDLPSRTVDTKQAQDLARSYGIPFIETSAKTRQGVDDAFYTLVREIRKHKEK
# Sequence (P62937 whole entry): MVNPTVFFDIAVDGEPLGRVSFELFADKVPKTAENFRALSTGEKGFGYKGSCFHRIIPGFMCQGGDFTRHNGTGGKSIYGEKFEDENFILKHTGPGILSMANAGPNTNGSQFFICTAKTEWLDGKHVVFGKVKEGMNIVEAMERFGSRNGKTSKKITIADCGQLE
# measurementProtocol: Ras-Raf disruption / FRET / MOA assay (BRAF RBD)
# Type: biochemical
# experimentalSetup: KRAS G13D FRET data IC50, Ras-Raf disruption, with Cyclophilin A

Record CCn1c(-c2cccnc2[C@H](C)OC)c2c3cc(ccc31)-c1cc(O)cc(c1)C[C@H](NC(=O)[C@H](C(C)C)N(C)C(=O)CN(C)C(=O)[C@H]1CN1CC1(C)COC1)C(=O)N1CCC[C@H](N1)C(=O)OCC(C)(C)C2 (some centres unmarked) , field IC50: 100 to 1000 nM

For this compound ( CCn1c(-c2cccnc2[C@H](C)OC)c2c3cc(ccc31)-c1cc(O)cc(c1)C[C@H](NC(=O)[C@H](C(C)C)N(C)C(=O)CN(C)C(=O)[C@@H]1CN1CCO)C(=O)N1CCC[C@H](N1)C(=O)OCC(C)(C)C2 (some centres unmarked) ), measured IC50 is 10 to 100 nM

Per the records, this compound ( CCn1c(-c2cccnc2[C@H](C)OC)c2c3cc(ccc31)-c1cc(O)cc(c1)C[C@H](NC(=O)[C@H](C(C)C)N(C)C(=O)[C@H](C)N(C)C(=O)[C@H]1CN1)C(=O)N1CCC[C@H](N1)C(=O)OCC(C)(C)C2 ) has IC50 equal to 100 to 1000 nM

The recorded IC50 for entry CCn1c(-c2cccnc2[C@H](C)OC)c2c3cc(ccc31)-c1cc(O)cc(c1)C[C@H](NC(=O)[C@H](C(C)C)N(C)C(=O)CN(C)C(=O)[C@@H]1N[C@H]1C1COC1)C(=O)N1CCC[C@H](N1)C(=O)OCC(C)(C)C2 equals 10 to 100 nM

# compound CCn1c(-c2cccnc2[C@H](C)OC)c2c3cc(ccc31)-c1cc(O)cc(c1)C[C@H](NC(=O)[C@H](C(C)C)N(C)C(=O)CN(C)C(=O)[C@H]1CN1Cc1ccccc1F)C(=O)N1CCC[C@H](N1)C(=O)OCC(C)(C)C2 (some centres unmarked) ; its IC50 = 100 to 1000 nM

Consider CCn1c(-c2cc(C3CCN(C)CC3)cnc2[C@H](C)OC)c2c3cc(ccc31)-c1cc(O)cc(c1)C[C@H](NC(=O)[C@H](C1CCCC1)N(C)C(=O)CN(C)C(=O)[C@H]1CN1)C(=O)N1CCC[C@H](N1)C(=O)OCC(C)(C)C2 . Its measured IC50 is 10 to 100 nM

Value of measured IC50 for the entry CCn1c(-c2cccnc2[C@H](C)OC)c2c3cc(ccc31)-c1cc(O)cc(c1)C[C@H](NC(=O)[C@H](C(C)C)N(C)C(=O)C13CCC(CC1)N3C(=O)[C@H]1CN1)C(=O)N1CCC[C@H](N1)C(=O)OCC(C)(C)C2 : 100 to 1000 nM

Form: compound = CCn1c(-c2cccnc2[C@H](C)OC)c2c3cc(ccc31)-c1cc(O)cc(c1)C[C@H](NC(=O)[C@H](C(C)C)N(C)C(=O)[C@H]1CC[C@@H](C)N1C(=O)[C@@H]1CN1)C(=O)N1CCC[C@H](N1)C(=O)OCC(C)(C)C2 ; IC50 = 100 to 1000 nM

###

# studySystem: NRAS G12C (Homo sapiens, UniProt P01111+P62937, G12C)
# Sequence (P01111 whole entry G12C, one chain of several): as the sequence (P01111 whole entry Q61K, one chain of several) above, with G12C, K61Q counted along it
# measurementProtocol: Disruption of BRAF RBD interaction with Ras (FRET / MOA assay, with Cyclophilin A)
# Assay type: biochemical
# experimentalSetup: NRAS G12C; read-out: NRAS G12C FRET data IC50
Assign IC50 to each entry below.

Lookup result for CCn1c(-c2cc(N3CCN(C)CC3)cnc2[C@H](C)OC)c2c3cc(ccc31)-c1csc(n1)C[C@H](NC(=O)[C@H](C(C)C)N(C)C(=O)N1CCC13CCN(C)CC3)C(=O)N1CCC[C@H](N1)C(=O)OCC(C)(C)C2 (atropisomer, axis not shown) ; measured IC50: 10 to 100 nM

Measured IC50, CCn1c(-c2cccnc2[C@H](C)OC)c2c3cc(ccc31)-c1cc(O)cc(c1)C[C@H](NS(=O)(=O)N1CCN(C)CC1)C(=O)N1CCC[C@H](N1)C(=O)OCC(C)(C)C2 (racemic) : > 10000 nM

For this compound ( CCn1c(-c2cccnc2[C@H](C)OC)c2c3cc(ccc31)-c1csc(n1)C[C@H](NC(=O)[C@H](C(C)C)N(C)C(=O)N1CC(n3nc(C)cc3C)C1)C(=O)N1CCC[C@H](N1)C(=O)OCC(C)(C)C2 ), measured IC50 is 100 to 1000 nM

Entry CCn1c(-c2cccnc2[C@H](C)OC)c2c3cc(ccc31)-c1csc(n1)C[C@H](NC(=O)[C@H](C(C)C)N(C)C(=O)N(C)C1CN(C(=O)/C=C/C(C)(C)O)C1)C(=O)N1CCC[C@H](N1)C(=O)OCC(C)(C)C2 (atropisomer, axis not shown) — recorded IC50 = 10 to 100 nM
